I'd be grateful if you could share measured pIC50 for these entries.
# TARGET_OF_ASSAY: NaV 1.8 channel (Homo sapiens, UniProt Q9Y5Y9)
# Sequence (Q9Y5Y9 whole entry): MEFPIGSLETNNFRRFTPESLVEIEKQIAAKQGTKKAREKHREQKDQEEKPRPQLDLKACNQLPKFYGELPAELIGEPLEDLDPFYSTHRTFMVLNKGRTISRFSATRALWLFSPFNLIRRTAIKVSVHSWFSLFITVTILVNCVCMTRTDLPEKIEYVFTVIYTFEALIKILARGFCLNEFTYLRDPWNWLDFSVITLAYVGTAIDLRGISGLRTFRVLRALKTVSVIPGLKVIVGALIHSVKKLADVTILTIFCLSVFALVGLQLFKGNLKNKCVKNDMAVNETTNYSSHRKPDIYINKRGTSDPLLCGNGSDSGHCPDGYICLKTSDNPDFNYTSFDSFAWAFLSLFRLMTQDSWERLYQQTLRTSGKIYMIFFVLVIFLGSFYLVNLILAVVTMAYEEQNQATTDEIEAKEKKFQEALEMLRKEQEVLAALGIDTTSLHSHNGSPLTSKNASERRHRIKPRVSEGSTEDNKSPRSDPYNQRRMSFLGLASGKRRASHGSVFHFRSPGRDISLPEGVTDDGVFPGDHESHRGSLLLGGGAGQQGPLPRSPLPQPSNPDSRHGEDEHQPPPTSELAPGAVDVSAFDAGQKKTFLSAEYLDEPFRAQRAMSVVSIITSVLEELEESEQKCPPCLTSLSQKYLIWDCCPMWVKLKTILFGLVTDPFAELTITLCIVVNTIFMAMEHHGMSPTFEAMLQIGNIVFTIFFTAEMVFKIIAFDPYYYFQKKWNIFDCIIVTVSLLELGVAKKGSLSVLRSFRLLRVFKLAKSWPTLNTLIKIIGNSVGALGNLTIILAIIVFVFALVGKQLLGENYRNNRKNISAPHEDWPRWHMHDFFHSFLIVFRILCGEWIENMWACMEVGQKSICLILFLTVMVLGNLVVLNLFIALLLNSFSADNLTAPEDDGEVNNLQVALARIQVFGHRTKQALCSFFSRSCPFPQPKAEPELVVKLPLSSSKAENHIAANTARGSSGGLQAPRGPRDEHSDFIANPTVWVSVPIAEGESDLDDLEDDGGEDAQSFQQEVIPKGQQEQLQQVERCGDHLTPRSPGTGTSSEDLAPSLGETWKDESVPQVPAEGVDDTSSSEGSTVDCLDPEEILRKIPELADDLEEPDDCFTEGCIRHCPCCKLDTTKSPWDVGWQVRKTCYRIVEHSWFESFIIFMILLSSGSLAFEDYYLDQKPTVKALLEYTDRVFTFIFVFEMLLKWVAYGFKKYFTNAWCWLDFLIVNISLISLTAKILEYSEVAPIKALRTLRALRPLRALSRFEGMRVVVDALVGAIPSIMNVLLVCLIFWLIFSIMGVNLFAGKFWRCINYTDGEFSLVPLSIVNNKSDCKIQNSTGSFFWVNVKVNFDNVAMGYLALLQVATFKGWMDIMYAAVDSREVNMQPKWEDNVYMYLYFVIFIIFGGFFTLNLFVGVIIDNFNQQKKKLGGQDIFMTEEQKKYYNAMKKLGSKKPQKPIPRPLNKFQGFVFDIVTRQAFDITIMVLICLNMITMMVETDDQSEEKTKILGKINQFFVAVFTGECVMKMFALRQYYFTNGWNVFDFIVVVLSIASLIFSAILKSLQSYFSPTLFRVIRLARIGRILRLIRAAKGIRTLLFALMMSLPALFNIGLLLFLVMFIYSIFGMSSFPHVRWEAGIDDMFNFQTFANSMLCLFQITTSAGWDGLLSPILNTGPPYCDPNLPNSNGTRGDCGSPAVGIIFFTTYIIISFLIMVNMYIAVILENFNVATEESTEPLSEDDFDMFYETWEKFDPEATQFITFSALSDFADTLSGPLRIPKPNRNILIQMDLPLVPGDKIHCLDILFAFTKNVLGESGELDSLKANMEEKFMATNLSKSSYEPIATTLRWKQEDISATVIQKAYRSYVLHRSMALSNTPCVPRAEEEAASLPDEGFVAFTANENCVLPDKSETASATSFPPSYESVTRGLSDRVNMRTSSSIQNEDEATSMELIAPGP
# TEST_PROTOCOL: Activity against NaV 1.8 channel (optical membrane potential assay)
pIC50: −log10 of the molar value.

Reported pIC50 for CCCCC(O)C(=O)N1CCN(c2nc(-c3ccccc3O)nc3ccccc23)CC1 (stereo not shown) was 5.00 to 5.70

Reported pIC50 for Cc1ccc2c(N3CCC(NC(=O)CCc4cccnc4)CC3)nc(-c3ccccc3O)nc2c1 was < 5.00

Reported pIC50 for Cc1ccc2c(N3CCC(NC(=O)C4CCOCC4)CC3)nc(-c3ccccc3O)nc2c1 was < 5.00

Reported pIC50 for CCOC(=O)NC[C@@H]1CCCN(c2nc(-c3ccccc3O)nc3cc(C)ccc23)C1 was 5.00 to 5.70

Reported pIC50 for CCCCC(O)C(=O)NC1CCN(c2nc(-c3ccccc3O)nc3ccccc23)CC1 (stereo not shown) was < 5.00

Reported pIC50 for O=C(N[C@@H]1CCN(c2nc(-c3ccccc3O)nc3ccc(F)cc23)C1)C(O)c1ccc(F)cc1 (stereo partly shown) was < 5.00

Reported pIC50 for Cc1ccc2c(N3CC[C@@H](CNC(=O)OCC(C)C)C3)nc(-c3ccccc3O)nc2c1 was > 5.70

Reported pIC50 for O=C(OCC1CCCCO1)N1CCN(c2nc(-c3ccccc3O)nc3ccc(F)cc23)CC1 (stereo not shown) was < 5.00

Reported pIC50 for Cc1ccc2c(N3CC[C@@H](NC(=O)C4CC4)C3)nc(-c3c(O)cccc3F)nc2c1 was 5.00 to 5.70

Reported pIC50 for Cc1ccc2c(N3CCC(NC(=O)[C@H]4CCCO4)CC3)nc(-c3ccccc3O)nc2c1 [Example 276] was 5.00 to 5.70

Reported pIC50 for Cc1ccc2c(N3CC[C@H](NC(=O)O[C@H]4CCOC4)C3)nc(-c3ccccc3O)nc2c1 was < 5.00

Reported pIC50 for Cc1ccc2c(N3CC[C@@H](CNC(=O)OCc4ccccc4)C3)nc(-c3ccccc3O)nc2c1 was 5.00 to 5.70

Reported pIC50 for CC(C)=CC(O)C(=O)N1CCN(c2nc(-c3ccccc3O)nc3cc(C)ccc23)CC1 (stereo not shown) was 5.00 to 5.70

Reported pIC50 for Cc1ccc2c(N3CCC(NC(=O)COC4CC(C)CCC4C(C)C)CC3)nc(-c3ccccc3O)nc2c1 (stereo not shown) was < 5.00

Reported pIC50 for Cc1ccc2c(N3CCC(NC(=O)OCc4cccc5c4OCO5)CC3)nc(-c3ccccc3O)nc2c1 was < 5.00

Reported pIC50 for COCCOC(=O)NC[C@@H]1CCN(c2nc(-c3ccccc3O)nc3cc(C)ccc23)C1 was 5.00 to 5.70

Provenance of the data: patent US7928107B2
